Tested on: Thyroid hormone receptor (Rattus norvegicus)
Experiment: Binding affinity to thyroid hormone receptor, relative to 3,5,3' triiodothyronine receptor, in isolated nuclei of heart
Assign a class from recorded Relative IC50; defined classes: low range (below 2), mid range (2 to below 20), high range (20 or more)

structure_smiles=N[C@@H](Cc1cc(I)c(Oc2ccc(O)c(Cc3ccc(O)c(F)c3)c2)c(I)c1)C(=O)O category_label="high range"
structure_smiles=N[C@@H](Cc1cc(I)c(Sc2ccc(O)c(Cc3ccc(O)nc3)c2)c(I)c1)C(=O)O category_label="mid range"
structure_smiles=CC(C)c1cc(Cc2cc(Oc3c(I)cc(C[C@H](N)C(=O)O)cc3I)ccc2O)ccc1O category_label="mid range"
structure_smiles=Nc1ccc(Cc2cc(Oc3c(I)cc(C[C@H](N)C(=O)O)cc3I)ccc2O)cc1 category_label="low range"
structure_smiles=N[C@@H](Cc1cc(Cl)c(Oc2ccc(O)c(Cc3ccc(O)nn3)c2)c(Cl)c1)C(=O)O category_label="low range"
structure_smiles=N[C@@H](Cc1cc(Br)c(Sc2ccc(O)c(Cc3ccc(O)nc3)c2)c(Br)c1)C(=O)O category_label="mid range"
structure_smiles=Cc1cc(Cc2cc(Oc3c(I)cc(C[C@H](N)C(=O)O)cc3I)ccc2O)ccc1O category_label="mid range"
structure_smiles=N[C@@H](Cc1cc(I)c(Oc2ccc(O)c(Cc3ccc([N+](=O)[O-])cc3)c2)c(I)c1)C(=O)O category_label="high range"
structure_smiles=N[C@@H](Cc1cc(Br)c(Oc2ccc(O)c(Cc3ccc(O)nc3)c2)c(Br)c1)C(=O)O category_label="low range"
